All figures here come from patent US20220064275A1.

- testedSystem: hLRRC33-proTGFβ1 complex on cells (human, UniProt Q86YC3 19-692; P01137 30-390)
- Sequence (Q86YC3 19-692 limits assumed, chain 1 of 2): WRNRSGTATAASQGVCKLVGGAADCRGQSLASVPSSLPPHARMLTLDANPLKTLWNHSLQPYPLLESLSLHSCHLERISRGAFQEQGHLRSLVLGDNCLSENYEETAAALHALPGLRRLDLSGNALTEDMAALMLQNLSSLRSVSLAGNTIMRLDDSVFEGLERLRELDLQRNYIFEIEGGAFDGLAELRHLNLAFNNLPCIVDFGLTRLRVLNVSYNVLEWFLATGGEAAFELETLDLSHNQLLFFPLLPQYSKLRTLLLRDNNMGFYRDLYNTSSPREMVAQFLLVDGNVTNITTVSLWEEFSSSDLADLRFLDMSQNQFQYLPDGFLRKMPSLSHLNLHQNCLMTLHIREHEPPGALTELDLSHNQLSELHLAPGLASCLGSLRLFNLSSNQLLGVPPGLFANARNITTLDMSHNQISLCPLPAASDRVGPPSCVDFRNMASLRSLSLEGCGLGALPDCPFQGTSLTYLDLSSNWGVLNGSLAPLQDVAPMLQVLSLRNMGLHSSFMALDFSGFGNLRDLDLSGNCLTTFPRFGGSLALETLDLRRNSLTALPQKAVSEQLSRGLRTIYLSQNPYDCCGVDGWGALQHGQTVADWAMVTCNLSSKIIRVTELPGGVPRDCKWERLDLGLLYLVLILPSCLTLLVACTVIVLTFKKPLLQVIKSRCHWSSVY
- Sequence (P01137 30-390 limits assumed, chain 2 of 2): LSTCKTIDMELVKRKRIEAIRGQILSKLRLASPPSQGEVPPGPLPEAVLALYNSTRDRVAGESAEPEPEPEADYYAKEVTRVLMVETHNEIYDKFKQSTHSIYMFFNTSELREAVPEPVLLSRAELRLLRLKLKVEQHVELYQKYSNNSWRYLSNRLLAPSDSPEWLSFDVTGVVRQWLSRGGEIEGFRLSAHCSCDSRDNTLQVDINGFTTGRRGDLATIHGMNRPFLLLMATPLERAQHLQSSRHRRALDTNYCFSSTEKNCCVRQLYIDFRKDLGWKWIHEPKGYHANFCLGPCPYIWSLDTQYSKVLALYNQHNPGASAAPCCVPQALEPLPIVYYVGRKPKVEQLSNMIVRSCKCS
- measurementDescription: cell-based or functional assay
quantity: IC50, reporter cell assay of TGFβ1 activation (nM)

binder | valueMeasured
Ab23 (antibody, V domains shown) VH: EVQLVESGGGLVQPGGSLRLSCAASGFTFSSFSMNWVRQAPGKGLEWVSYISPSADTIYYADSVKGRFTISRDNAKNTLYLQMNSLRAEDTAVYYCARGVLDYGDMLDPWGQGTLVTVSS VL: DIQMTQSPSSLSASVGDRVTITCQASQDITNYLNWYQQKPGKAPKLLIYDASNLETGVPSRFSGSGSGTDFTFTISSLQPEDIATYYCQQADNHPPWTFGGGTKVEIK | 0.579
Ab11 (antibody, IgG4, V domains shown) VH: EVQLLESGGGLVQPGGSLRLSCAASGFTFRNYAMSWVRQAPGKGLEWVSSISGSGGATYYADSVKGRFTISRDNSKNTLYLQMNSLRAEDTAVYYCARVSSGHWDFDYWGQGTLVTVSS VL: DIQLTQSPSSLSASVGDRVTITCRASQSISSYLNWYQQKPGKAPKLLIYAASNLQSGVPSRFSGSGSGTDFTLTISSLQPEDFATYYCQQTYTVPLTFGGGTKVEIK | 1.27
